Target Entity: DCAF1 WD40 domain (residues 1077-1390) (Homo sapiens)
Construct: DCAF1 WD40 domain (residues 1077-1390)
Test Summary: DCAF1 binding assay by SPR (Biacore 8K+), DCAF1-3 KD
Run Parameters: 25 °C, read-out: DCAF1-3 SPR (KD)
pKd: −log10 of the molar value.
Attribute Measured: pKd

Consider the worked cases shown below.
Compound	pKd
CCCN1CCN(c2ccnc(NC3CCCN(c4cccc(F)c4)C3)n2)CC1 (centres unmarked) [I-25]	< 3.70
NC[C@H]1C[C@@H](Nc2cc(N3CCCCC3)ccn2)CN(c2cccc(F)c2)C1 [I-1041]	4.00 to 5.00
Cc1sc(N2CCC[C@@H](Nc3cc(N4CCOCC4)ccn3)C2)nc1-c1ccccc1 [I-411]	< 3.70
Fc1cccc(N2CCC[C@H](Nc3cc(N4CCOCC4)ccn3)C2)c1 [I-499]	4.00 to 5.00

Next up:
Task: Which measured pKd value corresponds to Cc1ccc(CCCOCCOCCOCCOCCOCCNC(=O)C[C@@H]2N=C(c3ccc(Cl)cc3)c3c(sc(C)c3C)-n3c(C)nnc32)c(F)c1-c1c(C(=O)N[C@@H](CC(N)=O)c2cccc(Cl)c2)c[nH]c1C#N [I-1052] ?
Result: 4.00 to 5.00

----------
Target Entity: DCAF1 WD40 domain (residues 1077-1390) (Homo sapiens)
Construct: DCAF1 WD40 domain (residues 1077-1390)
Test Summary: DCAF1 binding assay by SPR (Biacore 8K+), DCAF1-3 KD
Run Parameters: 25 °C, read-out: DCAF1-3 SPR (KD)
pKd: −log10 of the molar value.
Attribute Measured: pKd

> print(dat)
                                   compound                             target.entity  attribute.measured  value.observed
1  C=CC(=O)N1CC[C@H](N(C)c2ccnc(N[C@@H]3CCCN(c4cccc(F)c4)C3)c2)C1  DCAF1 WD40 domain (residues 1077-1390) (Homo sapiens)                 pKd          < 3.70
2  N#Cc1cc2c(nc1N1CCC[C@@H](Nc3cc(N4CCOCC4)ccn3)C1)CCC2  DCAF1 WD40 domain (residues 1077-1390) (Homo sapiens)                 pKd          < 3.70
3  OCc1cnc2ccc(N3CCC[C@@H](Nc4cc(N5CCCCC5)ccn4)C3)nn12  DCAF1 WD40 domain (residues 1077-1390) (Homo sapiens)                 pKd          < 3.70
4  O=S1(=O)[C@H](Nc2cc(N3CCOCC3)ccn2)CCCN1c1cccc(F)c1  DCAF1 WD40 domain (residues 1077-1390) (Homo sapiens)                 pKd          < 3.70
5  NCCCCCCCCCCCCCCC1CCN(c2ccnc(N3CC[C@@H]4[C@H]3CCCN4c3cccc(F)c3)c2)CC1  DCAF1 WD40 domain (residues 1077-1390) (Homo sapiens)                 pKd    4.00 to 5.00
6  Fc1cccc(N2C[C@H](Nc3cc(N4CCOCC4)ncn3)C3CC[C@H]2C3)c1  DCAF1 WD40 domain (residues 1077-1390) (Homo sapiens)                 pKd          < 3.70

Task: Which measured pKd value corresponds to `Cc1c(F)ccc(F)c1-c1c(C(=O)N[C@@H](CC(N)=O)c2cccc(Cl)c2)c[nH]c1C(=O)c1cccc(C2CCCCC2)c1` ?
Result: > 5.00

Task: Which measured pKd value corresponds to C=CC(=O)N1CCN(c2ccnc(N[C@@H]3CCCN(c4cccc(F)c4)C3)c2)CC1C(F)(F)F (some centres unmarked) ?
Result: < 3.70

----------
Target Entity: DCAF1 WD40 domain (residues 1077-1390) (Homo sapiens, UniProt Q9Y4B6)
Construct: DCAF1 WD40 domain (residues 1077-1390)
Sequence (Q9Y4B6 1077-1390): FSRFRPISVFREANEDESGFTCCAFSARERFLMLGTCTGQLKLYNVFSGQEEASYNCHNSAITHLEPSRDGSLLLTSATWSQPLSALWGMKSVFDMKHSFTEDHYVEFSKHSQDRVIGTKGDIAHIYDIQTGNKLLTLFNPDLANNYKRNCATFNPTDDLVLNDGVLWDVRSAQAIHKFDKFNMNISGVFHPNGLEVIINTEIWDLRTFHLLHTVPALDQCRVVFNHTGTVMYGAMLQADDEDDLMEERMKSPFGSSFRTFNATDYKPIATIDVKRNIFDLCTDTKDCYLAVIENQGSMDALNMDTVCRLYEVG
Test Summary: DCAF1 binding assay by SPR (Biacore 8K+), DCAF1-3 KD
Run Parameters: 25 °C, read-out: DCAF1-3 SPR (KD)
Attribute Measured: Kd

Consider the worked cases shown below.
> print(dat)
                                   compound  value.observed
1  Cc1c(F)ccc(F)c1-c1c(C(=O)N[C@@H](CC(=O)N2CC[C@H](O)C2)c2cccc(Cl)c2)cn(C)c1C#N [I-1004]         < 10 µM
2  C=CC(=O)N1CC(c2n[nH]cc2C(=O)N[C@@H](CC(N)=O)c2cccc(Cl)c2)C1 [I-455]        > 200 µM
3  NCCCCCCCCCCCCCCCCCCCCC1CCN(c2ccnc(N3CC[C@@H]4[C@H]3CCCN4c3cccc(F)c3)c2)CC1 [I-745]        > 200 µM
4  OCCC[C@@H]1C[C@@H]2[C@@H](CCCN2c2cccc(F)c2)N1c1cc(N2CCCCC2)ccn1 [I-821]        > 200 µM
5  Cc1c(F)ccc(F)c1-c1c(C(=O)N[C@@H](CC(N)=O)c2cccc(Cl)c2)c[nH]c1C(=O)COCCOCCOCCOCCOCCN [I-809]         < 10 µM

Task: Which measured Kd value corresponds to NC(=O)C[C@H](NC(=O)c1cn[nH]c1-c1ccc(F)cc1)c1cccc(Cl)c1 [I-116] ?
Result: < 10 µM

Task: Which measured Kd value corresponds to c1ccc2cc(N3CCC[C@@H](Nc4nccc(N5CCOCC5)n4)C3)ncc2c1 [I-47] ?
Result: 100 to 200 µM

Task: Which measured Kd value corresponds to CC(NC(=O)c1cn[nH]c1-c1cccc(Cl)c1)c1ccc[nH]1 (centres unmarked) [I-836] ?
Result: > 200 µM

----------
Reported Kd is given for each of the following compounds.
Target Entity: DCAF1 WD40 domain (residues 1077-1390) (Homo sapiens, UniProt Q9Y4B6)
Construct: DCAF1 WD40 domain (residues 1077-1390)
Test Summary: DCAF1 binding assay by SPR (Biacore 8K+), DCAF1-3 KD
Run Parameters: 25 °C, read-out: DCAF1-3 SPR (KD)

> print(dat)
                                   compound  value.observed
1  NC(=O)C[C@H](NC(=O)[C@@H]1CC[C@](O)(c2ccccc2)C1)c1cccc(Cl)c1 [I-444]        > 200 µM
2  NC(=O)C[C@H](NC(=O)c1n[nH]c2c1NCCC2)c1cccc(Cl)c1 [I-299]        > 200 µM
3  Oc1ccc(N2CCC[C@@H](Nc3cc(N4CCOCC4)ncn3)C2)cc1 [I-14]   100 to 200 µM
4  CS(=O)(=O)Cc1ccc(F)c(-c2[nH]ncc2C(=O)N[C@H](CC(N)=O)c2cccc(Cl)c2)c1 [I-532]        > 200 µM

Next up:
Task: Which measured Kd value corresponds to C[C@@H]1CCCCC1c1[nH]ncc1C(=O)N[C@@H](CC(N)=O)c1cccc(Cl)c1 (some centres unmarked) [I-724] ?
Result: < 10 µM

----------
Target Entity: DCAF1 WD40 domain (residues 1077-1390) (Homo sapiens, UniProt Q9Y4B6)
Construct: DCAF1 WD40 domain (residues 1077-1390)
Test Summary: DCAF1 binding assay by SPR (Biacore 8K+), DCAF1-3 KD
Run Parameters: 25 °C, read-out: DCAF1-3 SPR (KD)
Attribute Measured: Kd

> print(dat)
                               smiles.input  value.observed
1  C=CC(=O)N(C)[C@H]1C[C@H](N(C)c2ccnc(N[C@@H]3CCCN(c4cccc(F)c4)C3)c2)C1        > 200 µM
2  c1cc(N2CCC[C@@H](Nc3cc(N4CCOCC4)ncn3)C2)c2cccnc2c1        > 200 µM
3  Fc1cccc(N2CCC[C@@H](Nc3cncc(N4CCOCC4)c3)C2)c1    10 to 100 µM

Task: Query for DCAF1 WD40 domain (residues 1077-1390) (Homo sapiens, UniProt Q9Y4B6): what Kd does the record show for `O[C@@H]1C[C@@H](Nc2cc(N3CCOCC3)ccn2)CN(c2cccc(F)c2)C1` ?
Result: 10 to 100 µM

Task: Query for DCAF1 WD40 domain (residues 1077-1390) (Homo sapiens, UniProt Q9Y4B6): what Kd does the record show for `CS(=O)(=O)CCC(=O)N1CCC[C@@H](Nc2cc(N3CCOCC3)ccn2)C1` ?
Result: > 200 µM

----------
Target Entity: DCAF1 WD40 domain (residues 1077-1390) (Homo sapiens, UniProt Q9Y4B6)
Construct: DCAF1 WD40 domain (residues 1077-1390)
Test Summary: DCAF1 binding assay by SPR (Biacore 8K+), DCAF1-3 KD
Run Parameters: 25 °C, read-out: DCAF1-3 SPR (KD)
Reported Kd is given for each of the following compounds.

Consider the worked cases shown below.
> print(dat)
                                   compound  attribute.measured  value.observed
1  CN(C)C(=O)c1cccnc1N1CCC[C@@H](Nc2cc(N3CCOCC3)ccn2)C1                  Kd        > 200 µM
2  Oc1ccc(N2CCC[C@@H](Nc3cncc(N4CCOCC4)c3)C2)cc1                  Kd    10 to 100 µM
3  C=CC(=O)N[C@H]1CC[C@H](c2n[nH]cc2C(=O)N[C@@H](CC(N)=O)c2cccc(Cl)c2)CC1                  Kd        > 200 µM

Task: Which measured Kd value corresponds to O=S(=O)(c1cc(N2CCOCC2)ccn1)C1CCCN(c2cccc(F)c2)C1 (stereo not drawn) ?
Result: > 200 µM

Task: Which measured Kd value corresponds to OC1(c2ccccc2)CCC[C@@H](Nc2cc(N3CCCCC3)ccn2)C1 (stereo partly drawn) ?
Result: 100 to 200 µM

Task: Which measured Kd value corresponds to `NC[C@@H]1CC[C@H](Nc2cc(N3CCCCC3)ccn2)CN1c1cccc(F)c1` ?
Result: 10 to 100 µM

Task: Which measured Kd value corresponds to `NC[C@@H]1CC[C@@H](Nc2cc(N3CCCCC3)ccn2)CN1c1cccc(F)c1` ?
Result: 10 to 100 µM

Task: Which measured Kd value corresponds to `COCCc1ccc(F)c(-c2[nH]ncc2C(=O)N[C@@H](CC(N)=O)c2cccc(Cl)c2)c1` ?
Result: 10 to 100 µM

Task: Which measured Kd value corresponds to `c1cnc2cc(N3CCC[C@@H](Nc4nccc(N5CCOCC5)n4)C3)ccc2c1` ?
Result: 10 to 100 µM
